Test system: Rattus norvegicus
Assay: Antithrombotic activity in Wistar rat assessed as thrombus weight at 15 umol/kg, iv (reference value: 28.54 +/- 2.62 mg)
Type: functional
Square brackets hold non-standard residues; d marks the D form. Peptide text beside a SMILES is read from it. Tic = O=C(O)[C@@H]1Cc2ccccc2CN1
RECORDED ENDPOINT: Activity (mg)
All answers are understood in mg, so give the number only.

Field Activity (entry O=C(O)[C@H](CO)NC(=O)[C@@H]1Cc2ccccc2CN1 (H-[Tic]-Ser-OH) ) reads 23.58

More entries:
Lab book: Activity of O=C(O)[C@H](CS)NC(=O)[C@@H]1Cc2ccccc2CN1 (H-[Tic]-Cys-OH) noted as 20.91

###

Tested on: Rattus norvegicus
Assay: Antithrombotic activity in Wistar rat assessed as thrombus weight at 10 nmol/kg, iv (reference value: 24.09 +/- 2.33 mg)
Assay type: functional
RECORDED ENDPOINT: Activity (mg)
Field: numeric (mg). Do not append units.

get_value(item= `CC(C)[C@@H](C(=O)O)N1C(=O)[C@@H]2Cc3ccccc3CN2C1(C)C` , readout=Activity) returns 14.01

The reported Activity of the compound `CSCC[C@@H](C(=O)O)N1C(=O)[C@@H]2Cc3ccccc3CN2C1(C)C` was 19.56

Summary for this compound, CCC(C)[C@@H](C(=O)O)N1C(=O)[C@@H]2Cc3ccccc3CN2C1(C)C (stereo not given in full) : Activity is 12.99

Activity for `CC1(C)N2Cc3ccccc3C[C@H]2C(=O)N1[C@@H](CC(N)=O)C(=O)O` is 20.75

Lab note: next compound to report on.
Activity in this record for `C[C@@H](C(=O)O)N1C(=O)[C@@H]2Cc3ccccc3CN2C1(C)C` : 15.45

###

Tested on: Rattus norvegicus
Assay: Antithrombotic activity in Wistar rat assessed as thrombus weight at 15 umol/kg, iv (reference value: 28.54 +/- 2.62 mg)
Format: functional
Square brackets hold non-standard residues; d marks the D form. Peptide text beside a SMILES is read from it. Tic = O=C(O)[C@@H]1Cc2ccccc2CN1
RECORDED ENDPOINT: Activity (mg)
Give just the numeric value; mg need not be written.

For this compound ( O=C(O)CC[C@H](NC(=O)[C@@H]1Cc2ccccc2CN1)C(=O)O (H-[Tic]-Glu-OH) ), measured Activity is 19.69

GET /value?item= CC(C)C[C@H](NC(=O)[C@@H]1Cc2ccccc2CN1)C(=O)O (H-[Tic]-Leu-OH) &field=Activity returns 20.23

Next compound, please.
The compound identified as O=C(O)[C@H](Cc1ccccc1)NC(=O)[C@@H]1Cc2ccccc2CN1 (H-[Tic]-Phe-OH) registered its Activity at 19.11

###

Assay: Antiplatelet activity against pig platelet assessed as inhibition of ADP-induced platelet aggregation by spectrophotometry
Type: functional, cell-based
Details: Sus scrofa
List of IC50 values.
Answer format: numeric, nM implied, no suffix.

For record CCC(C)[C@@H](C(=O)O)N1C(=O)[C@@H]2Cc3ccccc3CN2C1(C)C (some centres undefined) the listed IC50 is 158

Per the records, this molecule ( `CC1(C)N2Cc3ccccc3C[C@H]2C(=O)N1[C@@H](CCCCN)C(=O)O` ) has IC50 equal to 191

Looking up `CSCC[C@@H](C(=O)O)N1C(=O)[C@@H]2Cc3ccccc3CN2C1(C)C` , I see its IC50 listed as 264

// IC50 value for `CC1(C)N(CC(=O)O)C(=O)[C@@H]2Cc3ccccc3CN21` : 173

Recorded result, `O=C(O)[C@@H](NC(=O)[C@@H]1Cc2ccccc2CN1)NC1CCC1` , IC50: 364

***
So for `CC(C)[C@@H](C(=O)O)N1C(=O)[C@@H]2Cc3ccccc3CN2C1(C)C` , the logged IC50 turned out to be 175

Item: `CC1(C)N2Cc3ccccc3C[C@H]2C(=O)N1[C@@H](CS)C(=O)O` | IC50: 180

Memo: `O=C(O)[C@@H]1Cc2ccccc2CN1` , reported IC50: 542

Documented IC50 of `CC1(C)N2Cc3ccccc3C[C@H]2C(=O)N1[C@@H](CCC(=O)O)C(=O)O` : 248

// sample `CC1(C)N2Cc3ccccc3C[C@H]2C(=O)N1[C@@H](CCCNC(=N)N)C(=O)O` , its IC50 was 159

###

# inhibition at 10 µM annotations
Experiment: Antiplatelet activity against pig platelet assessed as inhibition of arachidonic acid-induced platelet aggregation at 10 uM by spectrophotometry
Format: functional
Settings: Sus scrofa
Quick reminder: number only, in %, skip the unit.

Sample `COC(=O)[C@H](CC(C)C)N1C(=O)[C@@H]2Cc3ccccc3CN2C1(C)C` ; inhibition at 10 µM observed: 37.5

Measured inhibition at 10 µM of CCC(C)[C@@H](C(=O)OC)N1C(=O)[C@@H]2Cc3ccccc3CN2C1(C)C (some centres undefined) : 49.4

// inhibition at 10 µM value for `COC(=O)[C@H](CS)N1C(=O)[C@@H]2Cc3ccccc3CN2C1(C)C` : 60.7

Reported inhibition at 10 µM ( COC(=O)[C@H](C(C)O)N1C(=O)[C@@H]2Cc3ccccc3CN2C1(C)C (some centres undefined) ) = 45

For this molecule ( `COC(=O)[C@H](CCC(N)=O)N1C(=O)[C@@H]2Cc3ccccc3CN2C1(C)C` ), measured inhibition at 10 µM is 48.1

###

Assay: Antiplatelet activity against pig platelet assessed as inhibition of ADP-induced platelet aggregation at 10 uM by spectrophotometry
Assay type: functional
Conditions: Sus scrofa
# reported inhibition at 10 µM; entries follow
Reply with just the number (in %).

Record excerpt, results attached:
// sample `COC(=O)C[C@@H](C(=O)OC)N1C(=O)[C@@H]2Cc3ccccc3CN2C1(C)C` , its inhibition at 10 µM was 24.6

The measured inhibition at 10 µM associated with `COC(=O)[C@H](Cc1ccc(O)cc1)N1C(=O)[C@@H]2Cc3ccccc3CN2C1(C)C` reads 53.1

Entry `COC(=O)[C@H](CCSC)N1C(=O)[C@@H]2Cc3ccccc3CN2C1(C)C` ; inhibition at 10 µM = 34

// inhibition at 10 µM value for `O=C(O)[C@@H]1Cc2ccccc2CN1` : 10.7

Further cases:
Sure, the documented inhibition at 10 µM for `COC(=O)[C@H](CCC(N)=O)N1C(=O)[C@@H]2Cc3ccccc3CN2C1(C)C` is 31.8

###

System: Rattus norvegicus
Assay: Antithrombotic activity in Wistar rat assessed as thrombus weight at 10 nmol/kg, iv (reference value: 24.09 +/- 2.33 mg)
Format: functional
RECORDED ENDPOINT: Activity (mg)
Give the quantity in mg, number only.

For orientation, consider the following solved cases.
Activity measured on `CC1(C)N2Cc3ccccc3C[C@H]2C(=O)N1[C@@H](CS)C(=O)O` = 14.36

# molecule CC(O)[C@@H](C(=O)O)N1C(=O)[C@@H]2Cc3ccccc3CN2C1(C)C (some centres undefined) ; its Activity = 16.04

`CC1(C)N2Cc3ccccc3C[C@H]2C(=O)N1[C@@H](CCCNC(=N)N)C(=O)O` has a reported Activity of 13.01

// Activity lookup, molecule = `CC1(C)N2Cc3ccccc3C[C@H]2C(=O)N1[C@@H](CCC(N)=O)C(=O)O` , result: 14.39

Recorded result, `CC1(C)N2Cc3ccccc3C[C@H]2C(=O)N1[C@@H](Cc1ccccc1)C(=O)O` , Activity: 13.27

Others:
Per the record, `CC1(C)N2Cc3ccccc3C[C@H]2C(=O)N1[C@@H](Cc1ccc(O)cc1)C(=O)O` has Activity of 20.1

get_value(item= `CC1(C)N2Cc3ccccc3C[C@H]2C(=O)N1[C@@H](CC(=O)O)C(=O)O` , readout=Activity) returns 21.41

The recorded Activity for `CC1(C)N2Cc3ccccc3C[C@H]2C(=O)N1[C@@H](CCCCN)C(=O)O` is 14.98

The molecule listed as `CC1(C)N2Cc3ccccc3C[C@H]2C(=O)N1[C@@H](CCC(=O)O)C(=O)O` has a reported Activity of 18.57

###

System: Rattus norvegicus
Assay: Antithrombotic activity in Wistar rat assessed as thrombus weight at 15 umol/kg, iv (reference value: 28.54 +/- 2.62 mg)
Format: functional
Square brackets hold non-standard residues; d marks the D form. Peptide text beside a SMILES is read from it. Tic = O=C(O)[C@@H]1Cc2ccccc2CN1
Reported Activity values for a set of compounds
Respond numerically; units are mg and should not be typed.

Take a look at these entries with their results.
The recorded Activity for entry CSCC[C@H](NC(=O)[C@@H]1Cc2ccccc2CN1)C(=O)O (H-[Tic]-Met-OH) equals 21.74

Lookup result for C[C@@H](O)[C@H](NC(=O)[C@@H]1Cc2ccccc2CN1)C(=O)O (H-[Tic]-Thr-OH) ; measured Activity: 21.25

Input O=C(O)[C@H](Cc1c[nH]cn1)NC(=O)[C@@H]1Cc2ccccc2CN1 (H-[Tic]-His-OH) . Output Activity: 20.86

Entry NC(=O)C[C@H](NC(=O)[C@@H]1Cc2ccccc2CN1)C(=O)O (H-[Tic]-Asn-OH) , Activity reported as 20.24

So for `CC(=O)Oc1ccccc1C(=O)O` , the logged Activity turned out to be 27.6

Entry `O=C(O)[C@@H](NC(=O)[C@@H]1Cc2ccccc2CN1)NC1CCC1` , Activity reported as 20.25

Reported Activity for O=C(O)C[C@H](NC(=O)[C@@H]1Cc2ccccc2CN1)C(=O)O (H-[Tic]-Asp-OH) was 21.67

Activity for NC(=O)CC[C@H](NC(=O)[C@@H]1Cc2ccccc2CN1)C(=O)O (H-[Tic]-Gln-OH) is 22.08

More entries:
Activity reported for this compound CCC(C)[C@H](NC(=O)[C@@H]1Cc2ccccc2CN1)C(=O)O (single isomer, unassigned) : 20.03

Measured Activity of NCCCC[C@H](NC(=O)[C@@H]1Cc2ccccc2CN1)C(=O)O (H-[Tic]-Lys-OH) : 21.28

Quick note, Activity for `O=C(O)[C@H](Cc1cc2ccccc2[nH]1)NC(=O)[C@@H]1Cc2ccccc2CN1` landed at 21.3

Notebook: C[C@H](NC(=O)[C@@H]1Cc2ccccc2CN1)C(=O)O (H-[Tic]-Ala-OH) , Activity read as 21.4

The measured Activity associated with O=C(O)CNC(=O)[C@@H]1Cc2ccccc2CN1 (H-[Tic]-Gly-OH) reads 20.24

get_value(item= CC(C)[C@H](NC(=O)[C@@H]1Cc2ccccc2CN1)C(=O)O (H-[Tic]-Val-OH) , readout=Activity) returns 19.2

The value of Activity measured for the compound O=C(O)[C@H](Cc1ccc(O)cc1)NC(=O)[C@@H]1Cc2ccccc2CN1 (H-[Tic]-Tyr-OH) turned out to be 19.31

Value of Activity reported for the compound N=C(N)NCCC[C@H](NC(=O)[C@@H]1Cc2ccccc2CN1)C(=O)O (H-[Tic]-Arg-OH) is 18.73
